# experimental-system: hGHQ141N (human, UniProt P01241 27-217)
# Sequence (P01241 27-217 Q167N): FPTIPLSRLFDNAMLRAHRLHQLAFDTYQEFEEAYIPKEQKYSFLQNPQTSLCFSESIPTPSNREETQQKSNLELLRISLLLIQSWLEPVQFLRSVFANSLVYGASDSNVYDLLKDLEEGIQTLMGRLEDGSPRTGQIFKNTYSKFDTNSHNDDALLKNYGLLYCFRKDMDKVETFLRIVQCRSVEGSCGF
# experiment: cell-based or functional assay
quantity-kind: RSA Q40

Worked cases, answers included:
binder	quantity-kind	observed-result
S. ladakanum GlyPro-TGase mutant Y75C (enzyme) GPDSDERVTPPAEPLDRMPDPYRPSYGRAETIVNNYIRKWQQVYSHRDGRKQQMTEEQREWLSYGCVGVTWVNSGQCPTNRLAFAFFDEDKYKNELKNGRPRSGETRAEFEGRVAKDSFDEAKGFQRARDVASVMNKALENAHDEGAYLDNLKKELANGNDALRNEDARSPFYSALRNTPSFKDRNGGNHDPSKMKAVIYSKHFWSGQDRSGSSDKRKYGDPEAFRPDRGTGLVDMSRDRNIPRSPTSPGESFVNFDYGWFGAQTEADADKTVWTHGNHYHAPNGSLGAMHVYESKFRNWSDGYSDFDRGAYVVTFVPKSWNTAPDKVKQGWP	RSA Q40	0.06 relative to wild type TGase
S. ladakanum GlyPro-TGase mutant Y75M (enzyme) GPDSDERVTPPAEPLDRMPDPYRPSYGRAETIVNNYIRKWQQVYSHRDGRKQQMTEEQREWLSYGCVGVTWVNSGQMPTNRLAFAFFDEDKYKNELKNGRPRSGETRAEFEGRVAKDSFDEAKGFQRARDVASVMNKALENAHDEGAYLDNLKKELANGNDALRNEDARSPFYSALRNTPSFKDRNGGNHDPSKMKAVIYSKHFWSGQDRSGSSDKRKYGDPEAFRPDRGTGLVDMSRDRNIPRSPTSPGESFVNFDYGWFGAQTEADADKTVWTHGNHYHAPNGSLGAMHVYESKFRNWSDGYSDFDRGAYVVTFVPKSWNTAPDKVKQGWP	RSA Q40	0.1 relative to wild type TGase
S. ladakanum GlyPro-TGase mutant S250P (enzyme) GPDSDERVTPPAEPLDRMPDPYRPSYGRAETIVNNYIRKWQQVYSHRDGRKQQMTEEQREWLSYGCVGVTWVNSGQYPTNRLAFAFFDEDKYKNELKNGRPRSGETRAEFEGRVAKDSFDEAKGFQRARDVASVMNKALENAHDEGAYLDNLKKELANGNDALRNEDARSPFYSALRNTPSFKDRNGGNHDPSKMKAVIYSKHFWSGQDRSGSSDKRKYGDPEAFRPDRGTGLVDMSRDRNIPRSPTSPGEPFVNFDYGWFGAQTEADADKTVWTHGNHYHAPNGSLGAMHVYESKFRNWSDGYSDFDRGAYVVTFVPKSWNTAPDKVKQGWP	RSA Q40	1.86 relative to wild type TGase
S. ladakanum GlyPro-TGase mutant S250D (enzyme) GPDSDERVTPPAEPLDRMPDPYRPSYGRAETIVNNYIRKWQQVYSHRDGRKQQMTEEQREWLSYGCVGVTWVNSGQYPTNRLAFAFFDEDKYKNELKNGRPRSGETRAEFEGRVAKDSFDEAKGFQRARDVASVMNKALENAHDEGAYLDNLKKELANGNDALRNEDARSPFYSALRNTPSFKDRNGGNHDPSKMKAVIYSKHFWSGQDRSGSSDKRKYGDPEAFRPDRGTGLVDMSRDRNIPRSPTSPGEDFVNFDYGWFGAQTEADADKTVWTHGNHYHAPNGSLGAMHVYESKFRNWSDGYSDFDRGAYVVTFVPKSWNTAPDKVKQGWP	RSA Q40	0.76 relative to wild type TGase
S. ladakanum GlyPro-TGase mutant S250Q (enzyme) GPDSDERVTPPAEPLDRMPDPYRPSYGRAETIVNNYIRKWQQVYSHRDGRKQQMTEEQREWLSYGCVGVTWVNSGQYPTNRLAFAFFDEDKYKNELKNGRPRSGETRAEFEGRVAKDSFDEAKGFQRARDVASVMNKALENAHDEGAYLDNLKKELANGNDALRNEDARSPFYSALRNTPSFKDRNGGNHDPSKMKAVIYSKHFWSGQDRSGSSDKRKYGDPEAFRPDRGTGLVDMSRDRNIPRSPTSPGEQFVNFDYGWFGAQTEADADKTVWTHGNHYHAPNGSLGAMHVYESKFRNWSDGYSDFDRGAYVVTFVPKSWNTAPDKVKQGWP	RSA Q40	1.62 relative to wild type TGase
S. ladakanum GlyPro-TGase mutant Y62L (enzyme) GPDSDERVTPPAEPLDRMPDPYRPSYGRAETIVNNYIRKWQQVYSHRDGRKQQMTEEQREWLSLGCVGVTWVNSGQYPTNRLAFAFFDEDKYKNELKNGRPRSGETRAEFEGRVAKDSFDEAKGFQRARDVASVMNKALENAHDEGAYLDNLKKELANGNDALRNEDARSPFYSALRNTPSFKDRNGGNHDPSKMKAVIYSKHFWSGQDRSGSSDKRKYGDPEAFRPDRGTGLVDMSRDRNIPRSPTSPGESFVNFDYGWFGAQTEADADKTVWTHGNHYHAPNGSLGAMHVYESKFRNWSDGYSDFDRGAYVVTFVPKSWNTAPDKVKQGWP	RSA Q40	0.07 relative to wild type TGase
S. ladakanum GlyPro-TGase mutant S250F (enzyme) GPDSDERVTPPAEPLDRMPDPYRPSYGRAETIVNNYIRKWQQVYSHRDGRKQQMTEEQREWLSYGCVGVTWVNSGQYPTNRLAFAFFDEDKYKNELKNGRPRSGETRAEFEGRVAKDSFDEAKGFQRARDVASVMNKALENAHDEGAYLDNLKKELANGNDALRNEDARSPFYSALRNTPSFKDRNGGNHDPSKMKAVIYSKHFWSGQDRSGSSDKRKYGDPEAFRPDRGTGLVDMSRDRNIPRSPTSPGEFFVNFDYGWFGAQTEADADKTVWTHGNHYHAPNGSLGAMHVYESKFRNWSDGYSDFDRGAYVVTFVPKSWNTAPDKVKQGWP	RSA Q40	1.85 relative to wild type TGase

Incoming: Value lookup for RSA Q40; key = S. ladakanum GlyPro-TGase mutant Y62T (enzyme) GPDSDERVTPPAEPLDRMPDPYRPSYGRAETIVNNYIRKWQQVYSHRDGRKQQMTEEQREWLSTGCVGVTWVNSGQYPTNRLAFAFFDEDKYKNELKNGRPRSGETRAEFEGRVAKDSFDEAKGFQRARDVASVMNKALENAHDEGAYLDNLKKELANGNDALRNEDARSPFYSALRNTPSFKDRNGGNHDPSKMKAVIYSKHFWSGQDRSGSSDKRKYGDPEAFRPDRGTGLVDMSRDRNIPRSPTSPGESFVNFDYGWFGAQTEADADKTVWTHGNHYHAPNGSLGAMHVYESKFRNWSDGYSDFDRGAYVVTFVPKSWNTAPDKVKQGWP
Outgoing: 0.1 relative to wild type TGase
